- target.of.assay: UniProt:P29597
- Sequence (P29597 whole entry): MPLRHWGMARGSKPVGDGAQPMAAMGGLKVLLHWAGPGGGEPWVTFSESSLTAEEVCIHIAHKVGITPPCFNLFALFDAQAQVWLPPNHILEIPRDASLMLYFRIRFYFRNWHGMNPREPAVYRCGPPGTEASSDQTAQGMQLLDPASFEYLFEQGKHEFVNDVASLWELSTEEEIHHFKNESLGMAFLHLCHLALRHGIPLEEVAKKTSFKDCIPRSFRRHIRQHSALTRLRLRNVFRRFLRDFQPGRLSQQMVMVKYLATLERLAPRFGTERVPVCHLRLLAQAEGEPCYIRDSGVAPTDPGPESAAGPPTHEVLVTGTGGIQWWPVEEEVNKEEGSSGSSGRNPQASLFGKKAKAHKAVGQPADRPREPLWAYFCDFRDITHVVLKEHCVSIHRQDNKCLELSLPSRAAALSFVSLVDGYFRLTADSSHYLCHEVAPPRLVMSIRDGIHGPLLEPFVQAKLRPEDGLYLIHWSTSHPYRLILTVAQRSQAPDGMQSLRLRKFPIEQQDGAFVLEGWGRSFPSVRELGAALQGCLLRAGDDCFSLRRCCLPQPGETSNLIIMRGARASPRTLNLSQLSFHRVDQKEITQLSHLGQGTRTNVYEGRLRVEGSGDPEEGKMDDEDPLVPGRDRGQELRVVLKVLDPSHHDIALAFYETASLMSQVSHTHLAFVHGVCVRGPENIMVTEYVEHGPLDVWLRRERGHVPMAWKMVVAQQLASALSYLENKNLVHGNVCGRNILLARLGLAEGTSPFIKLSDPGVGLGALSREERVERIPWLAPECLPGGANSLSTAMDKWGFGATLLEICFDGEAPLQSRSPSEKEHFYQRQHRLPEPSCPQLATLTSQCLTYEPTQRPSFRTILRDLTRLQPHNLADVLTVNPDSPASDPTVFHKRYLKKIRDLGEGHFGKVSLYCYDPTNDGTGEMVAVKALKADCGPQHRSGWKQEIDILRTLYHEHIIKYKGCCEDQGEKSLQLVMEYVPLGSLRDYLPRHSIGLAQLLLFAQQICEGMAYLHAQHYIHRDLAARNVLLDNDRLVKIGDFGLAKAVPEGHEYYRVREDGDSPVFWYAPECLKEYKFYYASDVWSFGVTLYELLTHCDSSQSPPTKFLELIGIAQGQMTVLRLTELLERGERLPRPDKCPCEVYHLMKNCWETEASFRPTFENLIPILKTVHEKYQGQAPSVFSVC
- experimental.protocol: pSTAT4 Cell Assay (MSD, NK92 cells)
- Assay type: cell-based
- run.parameters: MSD
Quick list: IC50 per entry.
endpoint.label: IC50

compound | target.of.assay | measured.result
CCOc1cnc(NC(C)=O)cc1Nc1cc(C)nc(C2CC2(C)C)n1 (racemic) [Example 518] | UniProt:P29597 | 100 to 1000 nM
CC(=O)Nc1cc(Nc2cc(C)nc(C(C)(F)F)n2)c(-c2ccc(S(C)(=O)=O)cn2)cn1 [Example 543] | UniProt:P29597 | ≤ 10 nM
CCOc1cnc(NC(C)=O)cc1Nc1nccc(C(C)(F)F)n1 [Example 3] | UniProt:P29597 | 10 to 100 nM
CC(=O)Nc1cc(Nc2cc(C)nc(C(C)(F)F)n2)c(-c2cn(C)c(C#N)n2)cn1 [Example 601] | UniProt:P29597 | ≤ 10 nM
COc1cnc(NC(C)=O)cc1Nc1cc(C(C)C)nc(C(C)(F)F)n1 [Example 52] | UniProt:P29597 | 10 to 100 nM
